Recorded AUC25 for the following compounds
- System: Mycobacterium tuberculosis Erdman (pMV306hsp+LuxG13)
- procedure-text: AUC25, normalised area under the dose-response curve up to IC25 (normalised AUC (unitless)); higher = more potent
- applied-conditions: growth medium: cholesterol 0.2 mM (cholesterol-high); time point: constant time point

Some solved entries appear below for comparison.
NC(=O)c1cnccn1 [pyrazinamide] + CC(C)=CCC/C(C)=C/CNCCNC1C2CC3CC(C2)CC1C3 [SQ109] :: 0.0592
COc1nc2ccc(Br)cc2cc1[C@@H](c1ccccc1)[C@@](O)(CCN(C)C)c1cccc2ccccc12 [bedaquiline] + CC(=O)NC[C@H]1CN(c2ccc(N3CCSCC3)c(F)c2)C(=O)O1 [sutezolid] :: 0.0763
CC(C)/N=c1\cc2n(-c3ccc(Cl)cc3)c3ccccc3nc-2cc1Nc1ccc(Cl)cc1 [clofazimine] + CC(C)=CCC/C(C)=C/CNCCNC1C2CC3CC(C2)CC1C3 [SQ109] :: 0.0566
CO[C@H]1/C=C/O[C@@]2(C)Oc3c(C)c(O)c4c(O)c(c(/C=N/N5CCN(C)CC5)c(O)c4c3C2=O)NC(=O)/C(C)=C\C=C\[C@H](C)[C@H](O)[C@@H](C)[C@@H](O)[C@@H](C)[C@H](OC(C)=O)[C@@H]1C [rifampicin] + CC(=O)NC[C@H]1CN(c2ccc(N3CCSCC3)c(F)c2)C(=O)O1 [sutezolid] :: 0.0474
CC[C@@H](CO)NCCN[C@@H](CC)CO [ethambutol] + CC(C)=CCC/C(C)=C/CNCCNC1C2CC3CC(C2)CC1C3 [SQ109] :: 0.0635

Incoming: Fill blank: measured AUC25 of the compound COc1c(N2C[C@@H]3CCCN[C@@H]3C2)c(F)cc2c(=O)c(C(=O)O)cn(C3CC3)c12 [moxifloxacin] + CC(=O)NC[C@H]1CN(c2ccc(N3CCSCC3)c(F)c2)C(=O)O1 [sutezolid] is ____.
Outgoing: 0.0941

Incoming: Which AUC25 value belongs to COc1nc2ccc(Br)cc2cc1[C@@H](c1ccccc1)[C@@](O)(CCN(C)C)c1cccc2ccccc12 [bedaquiline] + CC(C)=CCC/C(C)=C/CNCCNC1C2CC3CC(C2)CC1C3 [SQ109] ?
Outgoing: 0.0719

Incoming: Which measured AUC25 value corresponds to CC(C)/N=c1\cc2n(-c3ccc(Cl)cc3)c3ccccc3nc-2cc1Nc1ccc(Cl)cc1 [clofazimine] + CC(=O)NC[C@H]1CN(c2ccc(N3CCSCC3)c(F)c2)C(=O)O1 [sutezolid] ?
Outgoing: 0.1

Incoming: Recorded AUC25 for CO[C@H]1/C=C/O[C@@]2(C)Oc3c(C)c(O)c4c(O)c(c(/C=N/N5CCN(C6CCCC6)CC5)c(O)c4c3C2=O)NC(=O)/C(C)=C\C=C\[C@H](C)[C@H](O)[C@@H](C)[C@@H](O)[C@@H](C)[C@H](OC(C)=O)[C@@H]1C [rifapentine] + CC(=O)NC[C@H]1CN(c2ccc(N3CCSCC3)c(F)c2)C(=O)O1 [sutezolid] , please?
Outgoing: 0.0718
